target entity: HLA-DR molecule encoded by the allele DRB1*0401 (human)
run description: competition ELISA vs biotinylated HA 306-318

{"binder": "YKLVPVEPDKVEEAN (modifications not checked) [Nef10.4 peptide (positions 143-157 of the HIV-1 Nef protein, Bru strain), P03406 143-157]", "IC50 (nM)": 2750}
{"binder": "TQGYFPDWQNYTPGPG (modifications not checked) [Nef8 peptide (positions 117-132 of the HIV-1 Nef protein, Bru strain), P03406 117-132]", "IC50 (nM)": 8000}
{"binder": "GKWSKSSVVGWPTVR (modifications not checked) [Nef1.1 peptide (positions 3-17 of the HIV-1 Nef protein, Bru strain), P03406 3-17]", "IC50 (nM)": 700}
{"binder": "LTFGWCYKLVPVEPDKVEEANKGENTSLLHPV (modifications not checked) [Nef10 peptide (positions 137-168 of the HIV-1 Nef protein, Bru strain), P03406 137-168]", "IC50 (nM)": 150}
{"binder": "LTFGWCYKLVPVEPD (modifications not checked) [Nef10.1 peptide (positions 137-151 of the HIV-1 Nef protein, Bru strain), P03406 137-151]", "IC50 (nM)": 2000}
{"binder": "VPVEPDKVEEANKGE (modifications not checked) [Nef10.5 peptide (positions 146-160 of the HIV-1 Nef protein, Bru strain), P03406 146-160]", "IC50 (nM)": 2000}
{"binder": "LEKHGAITSSNTAATNAACAWLEAQEEEEVGFPVT (modifications not checked) [Nef3 peptide (positions 37-71 of the HIV-1 Nef protein, Bru strain), P03406 37-71]", "IC50 (nM)": 70}
{"binder": "DPEREVLEWRFDSRLA (modifications not checked) [Nef12 peptide (positions 175-190 of the HIV-1 Nef protein, Bru strain), P03406 175-190]", "IC50 (nM)": 2500}
{"binder": "FGWCYKLVPVEPDKV (modifications not checked) [Nef10.2 peptide (positions 139-153 of the HIV-1 Nef protein, Bru strain), P03406 139-153]", "IC50 (nM)": 250}
{"binder": "MGGKWSKSSVVGWPTVRERMRRAEPAADGVGAASRD (modifications not checked) [Nef1 peptide (positions 1-36 of the HIV-1 Nef protein, Bru strain), P03406 1-36]", "IC50 (nM)": 250}
{"binder": "WCYKLVPVEPDKVEE (modifications not checked) [Nef10.3 peptide (positions 141-155 of the HIV-1 Nef protein, Bru strain), P03406 141-155]", "IC50 (nM)": 250}
{"binder": "EWRFDSRLAFHHVAREL (modifications not checked) [Nef13 peptide (positions 182-198 of the HIV-1 Nef protein, Bru strain), P03406 182-198]", "IC50 (nM)": 3250}
